Values were extracted from patent US20250011410A1.

Target: T1, canine NGF tagged at the C-terminus with the Flag tag (canine, UniProt A0A8I3PYI3 122-241)
T1 construct: mature; Expressed with baculovirus technology; also called feline NGF (processed form identical)
T1 sequence (A0A8I3PYI3 entry or part of it): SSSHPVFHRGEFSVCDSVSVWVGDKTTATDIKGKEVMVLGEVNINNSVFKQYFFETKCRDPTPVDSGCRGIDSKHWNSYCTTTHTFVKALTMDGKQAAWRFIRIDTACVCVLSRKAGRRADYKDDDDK
Assay: SPR off-rate assay, Fab-SASA on BSA chip
Parameter: kon (M⁻¹ s⁻¹)
Number in M⁻¹ s⁻¹, nothing else.

The following binders have reported results that may help.
- AHF17609 (Fab, V domains shown, not shown: small tags and cut ends) VH: DVQLVESGGDLVKPGGSLRLTCVASGLSLTSSSMVWVRQAPGKGLQWVSTIYSNRGTYYTDSVKGRFTISKDNAENTLYLQMNNLKTEDTATYYCASIYYYDADYLHWYFDFWGQGALVTVSS VL: EIQMTQSPTSLSASVGDRVTITCRASEGIANNLSWYQQTPGKAPKLLIYATSILHSGVPSRFSGSGSGTDFTLTISSLQPEDFATYYCQQGYKWPLTFGGGTKLEITR: 228000
- AHF17600 (Fab, V domains shown, not shown: small tags and cut ends) VH: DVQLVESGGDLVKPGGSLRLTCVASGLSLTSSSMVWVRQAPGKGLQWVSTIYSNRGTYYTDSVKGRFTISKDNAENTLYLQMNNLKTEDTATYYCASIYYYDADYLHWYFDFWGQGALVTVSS VL: EIQMTQSPTSLSASVGDRVTITCRASEGISNNLSWYQQTPGKAPKLLIYATSVLHSGVPSRFSGSGSGTDFTLTISSLQPEDFATYYCQQGYKWPLTFGGGTKLEITR: 177000

Please look at the following binder next.
# input Requested field: kon. Item: AHF17607 (Fab, V domains shown, not shown: small tags and cut ends) VH: DVQLVESGGDLVKPGGSLRLTCVASGLSLTSSSMVWVRQAPGKGLQWVSTIYSNRGTYYTDSVKGRFTISKDNAENTLYLQMNNLKTEDTATYYCASIYYYDADYLHWYFDEWGQGALVTVSS VL: EIQMTQSPTSLSASVGDRVTITCRASEGISNNLSWYQQTPGKAPKLLIYATSILHSGVPSRFSGSGSGTDFTLTISSLQPEDFATYYCQQGYKWPLTFGGGTKLEITR
# output 226000
